Experiment description: inhibitors of CD8+ T cell-vesicle binding, pilot screen, LFA-1/ICAM-1 modulator project, MLPCN validation set, flow cytometry (AID 2523);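 note: mean PE anti-B7-1 fluorescence of CD8+ cells relative to row control; 100% = QL9-loaded vesicles with DMSO vehicle in the same plate row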
Conditions: 2C mouse CD8+ T cells, at 7 µM, stronger effect = lower value
Active and inactive are the calls of the source.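 Rule for the calls: active = response below a set limit, under 55% cells CD8-positive and vesicle-bound, and CD8 cells' 90th-percentile brightness under 279; inactive = the rest.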
Measured quantity: vesicle binding response

The following molecules have reported results that may help.
COC(=O)c1ccc(CC(=O)c2ccc(O)cc2O)o1 : 248% (inactive)
COc1ccc(C(=O)[C@H]2[C@H]3C(=O)N(c4ccccc4)C(=O)[C@H]3C3C=CC=NN32)cc1 (stereo partly specified) : 227% (inactive)
COc1ccc(/C=C2\CCc3ccccc3C2=O)c(OC)c1OC : 262% (inactive)

Problem: Dear colleague, I am looking for the recorded vesicle binding response of the following molecule: COc1cc2c3c(c1)C1(C(=O)N3C(C)(C)C=C2C)C(C#N)=C(N)Oc2cc(C)oc(=O)c21 (stereo unspecified)
Result: 172% (inactive)

Problem: Please do the same for O=C(/C=C/c1ccco1)N1CCN(c2ccccc2)CC1 as well.
Result: 210% (inactive)

---

Experiment description: RPL19A-GFP modulators, yeast TOR pathway, confirmation, cell-based, S. cerevisiae, flow cytometry, cherry picks, mother/daughter gates (AID 2270)
Conditions: S. cerevisiae RPL19A-GFP strain, 3 h, measured here: mother cell gate, at 10 µM, stronger effect = lower value, 100 = same GFP as DMSO wells
GFP response vs DMSO for assorted compounds

The following compounds have reported results that may help.
COc1ccc(Br)cc1/C=C/C(=O)c1ccc(NC(C)=O)cc1 : 97.7%
O=C(Nc1nc(-c2ccccn2)cs1)c1cc2ccccc2o1 : 83.7%
NS(=O)(=O)c1ccc(S(=O)(=O)c2ccccc2)nc1 : 96.9%
O=S(=O)(CCN(CCS(=O)(=O)C(F)(F)F)CC1CCCO1)C(F)(F)F (stereo unspecified) : 86.3%

Problem: Dear colleague, I am looking for the recorded GFP response vs DMSO of the following compound: CN(c1ccccc1)S(=O)(=O)c1ccc(C(=O)Nc2nnc(-c3ccc(F)cc3)o2)cc1
Result: 98.6%

Problem: Please do the same for Cc1ccc2nc(/C(C#N)=C/c3ccc(O)c(O)c3)[nH]c2c1 as well.
Result: 105%

Problem: Please do the same for CCOc1ccccc1NC1=C(Cl)C(=O)N(Cc2ccccc2)C1=O as well.
Result: 104%

Problem: Please do the same for Cc1ccc(NC(=O)c2nc(S(=O)(=O)Cc3ccccc3)ncc2Cl)cc1 as well.
Result: 89.8%

Problem: Please do the same for CCOC(=O)/C(=N\NC(=O)c1ccccc1)c1ccccc1 as well.
Result: 98.1%

Problem: Please do the same for O=S1(=O)Nc2c(ccc3cccnc23)-c2ccccc21 as well.
Result: 103%

Problem: Please do the same for CS(=O)(=O)c1nc(-c2cccs2)cc(C(F)(F)F)n1 as well.
Result: 88.6%

---

Experiment description: LAP4-GFP expression modulators in yeast, confirmation, cell-based, cherry picks, flow cytometry, mother/daughter gates (AID 2271);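 note: ratio of sample to DMSO plate mean so 100% equals DMSO level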
Conditions: S. cerevisiae LAP4-GFP strain, 3 h, at 10 µM, 100 means same as DMSO control
Active and inactive are the calls of the source.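 How the source made its calls: active means GFP response above 150% of the DMSO control; inconclusive means fewer than 70 events counted in any yeast strain; inactive means the rest.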
In this exercise, the only acceptable responses are T = active, F = inactive

Cc1cc(O)c(C(=O)/C=C/c2c(F)c(F)c(F)c(F)c2F)c(=O)o1 : T
CC(Oc1cccc(Cl)c1)C(=O)Nc1nc(-c2ccccn2)cs1 (stereo unspecified) : T
Cc1ccc(C(=O)O/N=C(\N)Cc2cccs2)c(Cl)c1 : F
O=C(CS(=O)c1ccccc1[N+](=O)[O-])Oc1ccc(Br)cc1 (stereo unspecified) : T
O=S(=O)(c1ccccc1)N1N=C(c2cccs2)CC1c1ccc(Br)cc1 (stereo unspecified) : F

Problem: Which result was noted for this compound in the test: COc1ccccc1Oc1ccc(S(=O)(=O)N2CCCC2)cc1
Result: F

---

GFP response, % of DMSO for assorted compounds
Experiment description: AGP1-GFP expression modulators, hit retest, confirmation, cell-based, flow cytometry, S. cerevisiae, cherry picks (AID 2273);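 note: median GFP channel fluorescence over the whole cell population gate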
Conditions: S. cerevisiae AGP1-GFP strain, 3 h, at 10 µM
Give your result in % as a bare value.

Problem: Dear colleague, I am looking for the recorded GFP response, % of DMSO of the following compound: Cc1nc2ccc(Br)cn2c1NC(C)(C)C
Result: 97.6

Problem: Please do the same for O=C(CN1CCN(Cc2ccccc2Cl)C1=O)NC1CCCCCCC1 as well.
Result: 99.7

---

Experiment description: modulators of CIT2-GFP expression in yeast, confirmation, S. cerevisiae, GFP fusion, cherry picks, mother/daughter gates (AID 2274)
Conditions: S. cerevisiae CIT2-GFP strain, flow cytometry, 3 h; measured here: daughter cell gate; at 10 µM; stronger effect = higher value
Measured quantity: GFP response, % of DMSO (%)
Give your result in % as a bare value.

The following compounds have reported results that may help.
CNC(=O)/C(C#N)=C/c1c(N(Cc2ccccc2)Cc2ccccc2)nc2c(C)cccn2c1=O : 108
O=C(NN1C(=O)/C(=C\c2ccc(O)c([N+](=O)[O-])c2)SC1=S)c1ccccc1Cl : 99.1

Problem: Dear colleague, I am looking for the recorded GFP response, % of DMSO of the following compound: COc1ccc(C2CC(c3cccs3)=NN2S(=O)(=O)c2ccc(C)cc2)cc1 (stereo not drawn)
Result: 106

Problem: Please do the same for C(=N\Nc1nc(-c2cccnc2)nc2ccccc12)/c1ccccc1 as well.
Result: 105

Problem: Please do the same for O=C(/C=C/c1ccccc1[N+](=O)[O-])c1ccccc1Br as well.
Result: 95.2

Problem: Please do the same for CCc1nnc(NC(=O)c2ccc(S(=O)(=O)N(CCOC)CCOC)cc2)o1 as well.
Result: 101

Problem: Please do the same for Cc1ccc2c(c1)/C(=C/c1ccc(F)cc1)C(=O)N2 as well.
Result: 97.6

Problem: Please do the same for COc1cc(NC(=O)c2ccc(C)cc2C)ccc1NC(=O)c1cc2ccccc2o1 as well.
Result: 101

Problem: Please do the same for COc1cc(NC(C)=O)ccc1NC(=O)c1cc2ccccc2o1 as well.
Result: 98.1

Problem: Please do the same for O=C(O)CSC1CC(=O)N(c2ccc(Cl)cc2)C1=O (stereo not drawn) as well.
Result: 90.5

Problem: Please do the same for COc1cccc(NC(=O)Nc2ccc3c(c2)nnn3C)c1 as well.
Result: 103

Problem: Please do the same for O=C(Cc1ccc(-c2ccccc2)cc1)OCC(=O)N1CCCC1=O as well.
Result: 89.9

Problem: Please do the same for Cc1csc(Nc2ccccc2C(F)(F)F)n1 as well.
Result: 97.6

Problem: Please do the same for Cc1ccc(/C=C/C(=O)c2ccccc(=O)c2O)c(C)c1 as well.
Result: 99.2

Problem: Please do the same for Cc1cc(S(=O)(=O)c2ccc([N+](=O)[O-])cn2)ccc1Br as well.
Result: 138

Problem: Please do the same for O=C(O)c1ccn2c(C(=O)c3ccc(Cl)cc3)c(-c3ccccc3)cc2c1 as well.
Result: 89

---

Experiment description: LAP4-GFP expression modulators in yeast, confirmation, cell-based, cherry picks, flow cytometry, mother/daughter gates (AID 2271);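 note: ratio of sample to DMSO plate mean so 100% equals DMSO level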
Conditions: S. cerevisiae LAP4-GFP strain, 3 h, at 10 µM, stronger effect = higher value, 100 means same as DMSO control
GFP response relative to DMSO for assorted molecules
Give your result in % as a bare value.

The following molecules have reported results that may help.
COc1ccc(OC)c(NC(=O)c2cccc3c2C(=O)N(C2CCCCC2)C3)c1 : 92.8
CCCn1c(=O)c(C(=O)Nc2ccccc2)c(O)c2ccccc21 : 100
Cc1nnc(NC(=O)c2ccc(S(=O)(=O)N(C)Cc3ccccc3)cc2)o1 : 101
CCOC(=O)CSC1=NC(=O)/C(=C/c2ccc(OC)cc2)S1 : 154
COc1ccc(OCC(O)CNC(=O)/C=C/c2cccc([N+](=O)[O-])c2)cc1 (stereo unspecified) : 104
Cc1cc(O)c(C(=O)/C=C/c2ccc(C(C)C)cc2)c(=O)o1 : 104
CCOC(=O)CNc1c(-c2ccc(O)cc2)nc2ccc(Cl)cn12 : 96.5
Cc1cccc(NC(=S)NCC23C=CC(O2)C2C(=O)N(c4ccc(Cl)cc4)C(=O)C23)c1 (stereo unspecified) : 103
COc1ccccc1N1C(=O)c2cccc3c(C(=O)O)ccc(c23)C1=O : 101
Cc1ccc(CN2CCSc3sccc3C2=O)cc1 : 142

// next entry
Problem: Dear colleague, I am looking for the recorded GFP response relative to DMSO of the following molecule: O=C(COC(=O)c1n[nH]c2ccccc12)c1cccc(Br)c1
Result: 101

---

Experiment description: modulators of CIT2-GFP expression in yeast, confirmation, S. cerevisiae, GFP fusion, cherry picks, mother/daughter gates (AID 2274)
Conditions: S. cerevisiae CIT2-GFP strain, flow cytometry, 3 h; at 10 µM; stronger effect = higher value
Measured quantity: GFP response, % of DMSO (%)
Give your result in % as a bare value.

Fc1cccc(Cl)c1Cn1ncc2ccccc21 : 97.3
O=C(NCCN1CCOCC1)c1ccc(CS(=O)(=O)Cc2ccccc2F)o1 : 110
COc1cc(NC(=O)c2ccc(Br)cc2)ccc1NC(=O)c1cc2ccccc2o1 : 96.5

Problem: Dear colleague, I am looking for the recorded GFP response, % of DMSO of the following compound: COc1cc(NC(=O)c2cc3ccccc3o2)ccc1NC(=O)c1ccco1
Result: 104

Problem: Please do the same for O=C(c1cccc(COCC(F)(F)C(F)F)c1)N1CCN(c2ccccc2)CC1 as well.
Result: 97.8

Problem: Please do the same for O=C(/C=C/c1ccnc2ccccc12)c1cccs1 as well.
Result: 90.7

Problem: Please do the same for C=CCNC(=O)/C(C#N)=C/c1c(N2CC(C)OC(C)C2)nc2ccccn2c1=O (stereo not drawn) as well.
Result: 96.5

Problem: Please do the same for O=S(=O)(c1ccc(Oc2ccc(Br)cc2)cc1)N1CCOCC1 as well.
Result: 95

Problem: Please do the same for CCCCN(CC)S(=O)(=O)c1ccc(C(=O)Nc2nnc(COC)o2)cc1 as well.
Result: 102

Problem: Please do the same for O=C(Nc1cccnc1)c1ccc(-c2ccc(Cl)cc2)o1 as well.
Result: 100

Problem: Please do the same for COC(=O)c1sc(-c2ccc(C(C)(C)C)cc2)cc1NC(=O)CCC(=O)O as well.
Result: 97.8

Problem: Please do the same for Cc1noc2ncnc(Sc3ccc(Br)cc3)c12 as well.
Result: 108
